We begin with a simple list: items and their reported TGI.
system: NCI-H460 lung; assay: NCI tumour cell line growth inhibition, 48 h

compound	TGI
CCc1c(C)c(C#N)c(=S)n(C2OC(COC(C)=O)C(OC(C)=O)C(OC(C)=O)C2OC(C)=O)c1C (configuration not stated)	> 100 µM
NCCCCC(N)C(=O)NCCNc1ccc(NCCNC(=O)C(N)CCCCN)c2c1C(=O)c1ccccc1C2=O (configuration not stated)	> 100 µM
Cc1ccc(NC(=O)c2cccc(OP(=O)(O)Nc3ccc(C)cc3)c2)cc1	> 100 µM
O=C1CCCCC2N(C(c3ccccc3)c3ccccc3)CC[C@@]12c1ccccc1 (mixture of isomers)	> 10 µM
O=C1O/C(=C(/Br)c2ccc(Cl)c(Cl)c2)c2ccccc21	> 10 µM
NC(=S)Nc1ccc(S(=O)(=O)Nc2ccc(S(N)(=O)=O)cc2)cc1	> 100 µM
C/C=C1/C(=C/c2[nH]c(/C=c3\[nH]/c(=C/C4=NC(=O)C(CC)=C4C)c(C)c3CCC(=O)O)c(CCC(=O)O)c2C)NC(=O)C1C (configuration not stated)	> 150 µg/mL
Cc1cc(=O)n2nc(CN3CCCCC3)sc2n1	> 100 µM
Cc1ccc2c(c1)CN(C(=O)CCC(=O)OCc1ccccc1)c1ccc(C)cc1CN2C(=O)CCC(=O)OCc1ccccc1	> 100 µM
COC(=O)[C@H](Cc1c[nH]c2ccccc12)NC(=O)[C@@H](OC)[C@@H]1Cc2cc3cc(OC4CC(OC5CC(O)C(O)C(C)O5)C(O)C(C)O4)c(C)c(O)c3c(O)c2C(=O)[C@H]1OC1CC(OC2CC(OC3CC(C)(O)C(O)C(C)O3)C(O)C(C)O2)C(O)C(C)O1 (some centres not stated)	> 5.24 µM
OC/C=C(\I)CCCOCOCc1ccccc1	> 100 µM
C=C1CCC23CC(CC[C@@H]2[C@@]12C[C@@H](c1ccoc1)OC2=O)OC3=O (some centres not stated)	> 100 µM
Nc1nc(-c2cccc(Cl)c2)c(-c2ccc3ncccc3n2)s1	> 25 µM
Cc1[nH]c2ccccc2c1C1Cc2ccccc2N1C(=O)/C(Cl)=C/c1ccccc1 (configuration not stated)	> 100 µM
COC/C=C\[C@]1(O)CCCC[C@@H]1CC(OC)OC	> 100 µM
Cn1c2ccccc2c2c3[nH]c(=O)[nH]c(=O)c3c3c4ccccc4n(C)c3c21	> 100 µM
O=C(N/N=C\c1cccc(O)c1)c1ccncc1	> 100 µM
